Reference for the values: ChEMBL document CHEMBL2146394

tgt: Hepatocyte growth factor receptor (Homo sapiens, UniProt P08581)
Sequence (P08581 whole entry): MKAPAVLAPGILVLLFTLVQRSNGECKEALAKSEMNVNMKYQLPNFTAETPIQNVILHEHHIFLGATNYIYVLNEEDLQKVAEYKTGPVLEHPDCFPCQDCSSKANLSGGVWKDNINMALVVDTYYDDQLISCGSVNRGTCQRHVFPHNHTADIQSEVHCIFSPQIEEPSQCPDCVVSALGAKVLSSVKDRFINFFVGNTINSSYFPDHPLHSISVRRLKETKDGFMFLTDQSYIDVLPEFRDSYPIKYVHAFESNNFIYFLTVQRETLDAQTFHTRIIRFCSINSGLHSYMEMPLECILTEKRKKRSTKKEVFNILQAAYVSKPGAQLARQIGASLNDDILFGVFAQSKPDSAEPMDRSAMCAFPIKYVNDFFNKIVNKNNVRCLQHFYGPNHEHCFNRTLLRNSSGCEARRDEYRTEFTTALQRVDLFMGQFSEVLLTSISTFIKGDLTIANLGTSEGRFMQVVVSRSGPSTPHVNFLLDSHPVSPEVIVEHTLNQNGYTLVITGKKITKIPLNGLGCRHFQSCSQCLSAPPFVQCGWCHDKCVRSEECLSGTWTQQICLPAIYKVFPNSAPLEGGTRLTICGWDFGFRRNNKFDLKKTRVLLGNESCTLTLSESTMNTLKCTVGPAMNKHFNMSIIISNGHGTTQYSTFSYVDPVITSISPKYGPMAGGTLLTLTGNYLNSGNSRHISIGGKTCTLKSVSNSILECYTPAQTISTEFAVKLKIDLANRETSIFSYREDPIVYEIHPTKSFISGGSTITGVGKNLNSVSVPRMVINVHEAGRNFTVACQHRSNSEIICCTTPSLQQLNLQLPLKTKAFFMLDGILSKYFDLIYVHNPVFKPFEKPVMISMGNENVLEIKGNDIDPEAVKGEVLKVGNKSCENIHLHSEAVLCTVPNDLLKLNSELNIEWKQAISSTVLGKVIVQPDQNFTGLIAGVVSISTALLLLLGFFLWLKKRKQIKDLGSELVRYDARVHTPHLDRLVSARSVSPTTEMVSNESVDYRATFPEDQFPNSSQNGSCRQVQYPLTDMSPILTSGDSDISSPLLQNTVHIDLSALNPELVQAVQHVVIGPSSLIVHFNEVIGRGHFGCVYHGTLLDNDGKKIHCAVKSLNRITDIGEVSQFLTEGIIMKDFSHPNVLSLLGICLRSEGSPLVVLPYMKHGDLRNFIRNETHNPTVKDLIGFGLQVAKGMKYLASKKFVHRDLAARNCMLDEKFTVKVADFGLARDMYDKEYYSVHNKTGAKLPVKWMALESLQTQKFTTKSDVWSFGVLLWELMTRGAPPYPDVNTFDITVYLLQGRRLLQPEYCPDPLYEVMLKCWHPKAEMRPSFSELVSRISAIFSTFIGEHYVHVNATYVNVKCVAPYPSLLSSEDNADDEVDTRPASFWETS
pIC50: −log10 of the molar value.

{"structure": "CC(C)(C(=O)NCCn1ccc2ncnc(Nc3ccc(Oc4cccc(Cl)c4)c(Cl)c3)c21)S(C)(=O)=O.Cc1ccc(S(=O)(=O)O)cc1", "pIC50": 5.41}

----------
tgt: Dual specificity protein kinase TTK (Homo sapiens, UniProt P33981)
Sequence (P33981 whole entry): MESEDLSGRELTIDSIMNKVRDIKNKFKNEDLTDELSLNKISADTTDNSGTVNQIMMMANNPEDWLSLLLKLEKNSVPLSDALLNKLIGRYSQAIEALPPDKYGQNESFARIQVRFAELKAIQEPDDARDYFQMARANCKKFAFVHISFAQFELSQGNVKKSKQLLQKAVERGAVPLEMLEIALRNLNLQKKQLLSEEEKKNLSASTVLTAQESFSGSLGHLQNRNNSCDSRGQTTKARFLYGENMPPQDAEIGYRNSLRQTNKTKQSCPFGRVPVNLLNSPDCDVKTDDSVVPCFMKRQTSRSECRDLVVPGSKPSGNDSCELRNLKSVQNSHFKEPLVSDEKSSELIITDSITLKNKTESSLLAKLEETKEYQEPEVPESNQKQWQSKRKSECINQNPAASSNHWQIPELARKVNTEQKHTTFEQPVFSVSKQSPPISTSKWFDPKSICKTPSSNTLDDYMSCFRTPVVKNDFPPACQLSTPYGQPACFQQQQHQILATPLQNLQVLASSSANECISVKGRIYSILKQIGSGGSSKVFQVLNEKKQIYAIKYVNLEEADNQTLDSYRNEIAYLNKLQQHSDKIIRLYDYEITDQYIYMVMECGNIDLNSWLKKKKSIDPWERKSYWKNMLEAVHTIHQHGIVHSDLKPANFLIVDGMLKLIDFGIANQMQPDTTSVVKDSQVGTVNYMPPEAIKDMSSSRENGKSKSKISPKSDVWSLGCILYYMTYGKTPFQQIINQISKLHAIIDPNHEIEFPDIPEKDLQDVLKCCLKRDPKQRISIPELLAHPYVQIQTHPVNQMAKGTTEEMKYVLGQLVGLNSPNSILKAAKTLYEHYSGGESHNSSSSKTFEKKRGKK
pIC50: −log10 of the molar value.

{"structure": "CC(C)(C(=O)NCCn1ccc2ncnc(Nc3ccc(Oc4cccc(Cl)c4)c(Cl)c3)c21)S(C)(=O)=O.Cc1ccc(S(=O)(=O)O)cc1", "pIC50": "< 5.00"}

----------
tgt: Dual specificity mitogen-activated protein kinase kinase 1 (Homo sapiens)
Sequence (Q02750 whole entry): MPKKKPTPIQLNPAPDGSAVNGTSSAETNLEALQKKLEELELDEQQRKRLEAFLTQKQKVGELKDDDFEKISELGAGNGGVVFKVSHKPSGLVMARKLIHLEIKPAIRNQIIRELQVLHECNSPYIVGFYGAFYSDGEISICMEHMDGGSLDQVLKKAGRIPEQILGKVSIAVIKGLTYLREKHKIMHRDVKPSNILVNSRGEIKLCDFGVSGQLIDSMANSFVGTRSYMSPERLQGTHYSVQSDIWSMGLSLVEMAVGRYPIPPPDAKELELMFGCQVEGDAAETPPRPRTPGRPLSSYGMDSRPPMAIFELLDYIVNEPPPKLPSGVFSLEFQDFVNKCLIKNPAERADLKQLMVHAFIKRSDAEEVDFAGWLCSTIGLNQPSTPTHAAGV
test: Inhibition of N-terminal GST-tagged MEK1 after 5 mins by scintillation counter
pIC50: −log10 of the molar value.
recorded-metric: pIC50

{"structure": "CC(C)(C(=O)NCCn1ccc2ncnc(Nc3ccc(Oc4cccc(Cl)c4)c(Cl)c3)c21)S(C)(=O)=O.Cc1ccc(S(=O)(=O)O)cc1", "recorded-number": 6.01}

----------
tgt: Serine/threonine-protein kinase B-raf (Homo sapiens)
Sequence (P15056 whole entry): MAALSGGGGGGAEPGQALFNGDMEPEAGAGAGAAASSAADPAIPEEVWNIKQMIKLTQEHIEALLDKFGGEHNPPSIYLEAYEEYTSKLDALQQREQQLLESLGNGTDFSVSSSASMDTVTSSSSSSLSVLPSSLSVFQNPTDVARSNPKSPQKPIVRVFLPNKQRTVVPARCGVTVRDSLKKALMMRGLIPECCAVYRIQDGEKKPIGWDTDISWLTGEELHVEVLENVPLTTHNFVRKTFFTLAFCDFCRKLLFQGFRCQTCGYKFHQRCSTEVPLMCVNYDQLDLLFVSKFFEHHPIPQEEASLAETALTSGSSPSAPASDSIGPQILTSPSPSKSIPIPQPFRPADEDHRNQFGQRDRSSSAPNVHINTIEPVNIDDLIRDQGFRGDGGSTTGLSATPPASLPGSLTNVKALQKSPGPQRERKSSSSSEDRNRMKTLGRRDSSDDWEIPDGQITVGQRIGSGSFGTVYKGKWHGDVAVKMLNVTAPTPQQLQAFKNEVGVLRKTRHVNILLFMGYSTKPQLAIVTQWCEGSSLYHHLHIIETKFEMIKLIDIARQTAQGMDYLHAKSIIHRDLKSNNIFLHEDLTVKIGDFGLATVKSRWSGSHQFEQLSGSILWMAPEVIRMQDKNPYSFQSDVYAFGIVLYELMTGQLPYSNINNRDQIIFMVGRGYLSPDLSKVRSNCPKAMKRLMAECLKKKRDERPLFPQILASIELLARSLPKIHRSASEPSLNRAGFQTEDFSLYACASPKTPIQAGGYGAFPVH
recorded-metric: IC50

{"structure": "CC(C)(C(=O)NCCn1ccc2ncnc(Nc3ccc(Oc4cccc(Cl)c4)c(Cl)c3)c21)S(C)(=O)=O.Cc1ccc(S(=O)(=O)O)cc1", "tgt": "Serine/threonine-protein kinase B-raf (Homo sapiens)", "recorded-metric": "IC50", "result": "> 10 µM"}

----------
tgt: Mitogen-activated protein kinase 14 (Homo sapiens)
test: Inhibition of N-terminal FLAG-tagged p38alpha expressed in baculovirus after 5 mins by scintillation counter

{"structure": "CC(C)(C(=O)NCCn1ccc2ncnc(Nc3ccc(Oc4cccc(Cl)c4)c(Cl)c3)c21)S(C)(=O)=O.Cc1ccc(S(=O)(=O)O)cc1", "IC50": "> 10 µM"}

----------
tgt: Tyrosine-protein kinase Lyn (Homo sapiens, UniProt P07948)
Sequence (P07948 whole entry): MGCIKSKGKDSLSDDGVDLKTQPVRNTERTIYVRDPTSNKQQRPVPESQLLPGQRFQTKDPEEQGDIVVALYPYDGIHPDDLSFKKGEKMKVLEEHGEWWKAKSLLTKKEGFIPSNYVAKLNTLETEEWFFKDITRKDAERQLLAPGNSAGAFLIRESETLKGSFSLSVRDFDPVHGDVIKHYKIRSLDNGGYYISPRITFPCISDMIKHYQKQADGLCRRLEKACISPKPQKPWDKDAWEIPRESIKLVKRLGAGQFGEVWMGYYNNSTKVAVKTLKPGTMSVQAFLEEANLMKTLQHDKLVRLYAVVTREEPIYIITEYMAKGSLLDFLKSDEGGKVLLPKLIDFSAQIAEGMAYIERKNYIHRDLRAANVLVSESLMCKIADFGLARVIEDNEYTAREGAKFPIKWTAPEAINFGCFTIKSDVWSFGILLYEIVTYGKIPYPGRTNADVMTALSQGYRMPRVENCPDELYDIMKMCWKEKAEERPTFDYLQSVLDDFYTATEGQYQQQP
test: Inhibition of LYN B after 5 mins
pIC50: −log10 of the molar value.

{"structure": "CC(C)(C(=O)NCCn1ccc2ncnc(Nc3ccc(Oc4cccc(Cl)c4)c(Cl)c3)c21)S(C)(=O)=O.Cc1ccc(S(=O)(=O)O)cc1", "tgt": "Tyrosine-protein kinase Lyn (Homo sapiens, UniProt P07948)", "pIC50": 5.48}

----------
tgt: Mitogen-activated protein kinase 3 (Homo sapiens)
Sequence (P27361 whole entry): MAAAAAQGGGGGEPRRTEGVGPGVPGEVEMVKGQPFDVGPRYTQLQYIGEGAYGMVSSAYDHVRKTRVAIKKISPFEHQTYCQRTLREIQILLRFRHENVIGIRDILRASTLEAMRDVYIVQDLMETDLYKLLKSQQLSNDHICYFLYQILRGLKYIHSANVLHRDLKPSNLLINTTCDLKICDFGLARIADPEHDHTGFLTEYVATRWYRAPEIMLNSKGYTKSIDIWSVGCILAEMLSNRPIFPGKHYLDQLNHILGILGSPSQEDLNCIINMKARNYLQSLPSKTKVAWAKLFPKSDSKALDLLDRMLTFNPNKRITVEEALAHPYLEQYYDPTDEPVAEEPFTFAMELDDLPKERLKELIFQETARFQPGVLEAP
test: Inhibition of N-terminal FLAG-tagged ERK1 expressed in baculovirus after 5 mins by scintillation counter
pIC50: −log10 of the molar value.
recorded-metric: pIC50

{"structure": "CC(C)(C(=O)NCCn1ccc2ncnc(Nc3ccc(Oc4cccc(Cl)c4)c(Cl)c3)c21)S(C)(=O)=O.Cc1ccc(S(=O)(=O)O)cc1", "result": "< 5.00"}

----------
tgt: Glycogen synthase kinase-3 beta (Homo sapiens, UniProt P49841)
Sequence (P49841 whole entry): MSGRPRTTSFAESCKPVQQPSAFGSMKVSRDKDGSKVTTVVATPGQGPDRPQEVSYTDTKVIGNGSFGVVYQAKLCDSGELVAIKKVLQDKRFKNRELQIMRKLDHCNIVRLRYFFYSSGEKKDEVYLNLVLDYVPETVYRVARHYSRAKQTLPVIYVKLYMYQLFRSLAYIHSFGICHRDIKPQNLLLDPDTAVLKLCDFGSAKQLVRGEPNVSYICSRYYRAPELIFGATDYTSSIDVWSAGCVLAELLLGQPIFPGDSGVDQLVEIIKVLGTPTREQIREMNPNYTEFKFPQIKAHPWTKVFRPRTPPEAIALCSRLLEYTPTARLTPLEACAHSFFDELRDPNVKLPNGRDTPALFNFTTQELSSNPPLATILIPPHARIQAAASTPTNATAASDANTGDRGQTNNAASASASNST
pIC50: −log10 of the molar value.

{"structure": "CC(C)(C(=O)NCCn1ccc2ncnc(Nc3ccc(Oc4cccc(Cl)c4)c(Cl)c3)c21)S(C)(=O)=O.Cc1ccc(S(=O)(=O)O)cc1", "tgt": "Glycogen synthase kinase-3 beta (Homo sapiens, UniProt P49841)", "pIC50": "< 5.00"}

----------
tgt: Fibroblast growth factor receptor 1 (Homo sapiens, UniProt P11362)
Sequence (P11362 whole entry): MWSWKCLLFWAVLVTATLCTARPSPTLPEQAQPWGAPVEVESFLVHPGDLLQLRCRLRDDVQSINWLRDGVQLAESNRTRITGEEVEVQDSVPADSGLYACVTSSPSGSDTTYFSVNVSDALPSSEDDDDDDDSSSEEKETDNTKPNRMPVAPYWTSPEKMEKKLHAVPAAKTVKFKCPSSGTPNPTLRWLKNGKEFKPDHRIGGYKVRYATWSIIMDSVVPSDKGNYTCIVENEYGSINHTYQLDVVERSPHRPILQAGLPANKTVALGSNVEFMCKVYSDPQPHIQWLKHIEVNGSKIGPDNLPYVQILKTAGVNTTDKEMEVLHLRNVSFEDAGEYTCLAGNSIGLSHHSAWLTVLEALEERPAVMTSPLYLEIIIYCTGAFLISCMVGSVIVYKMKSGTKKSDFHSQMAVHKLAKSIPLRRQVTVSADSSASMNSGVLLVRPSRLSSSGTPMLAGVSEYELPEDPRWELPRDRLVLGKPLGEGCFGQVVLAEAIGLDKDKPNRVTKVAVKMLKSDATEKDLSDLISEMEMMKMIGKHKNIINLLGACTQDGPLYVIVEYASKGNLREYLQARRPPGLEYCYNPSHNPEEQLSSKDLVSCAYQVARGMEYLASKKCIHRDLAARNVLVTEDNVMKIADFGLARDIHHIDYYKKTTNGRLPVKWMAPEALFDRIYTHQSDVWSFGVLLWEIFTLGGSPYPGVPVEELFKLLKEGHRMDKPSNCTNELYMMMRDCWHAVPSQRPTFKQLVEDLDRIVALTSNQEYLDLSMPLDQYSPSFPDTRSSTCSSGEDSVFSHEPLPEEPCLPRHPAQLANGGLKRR
pIC50: −log10 of the molar value.

{"structure": "CC(C)(C(=O)NCCn1ccc2ncnc(Nc3ccc(Oc4cccc(Cl)c4)c(Cl)c3)c21)S(C)(=O)=O.Cc1ccc(S(=O)(=O)O)cc1", "tgt": "Fibroblast growth factor receptor 1 (Homo sapiens, UniProt P11362)", "pIC50": "< 5.00"}

----------
tgt: Tyrosine-protein kinase CSK (Homo sapiens, UniProt P41240)
test: Inhibition of CSK after 5 mins
pIC50: −log10 of the molar value.

{"structure": "CC(C)(C(=O)NCCn1ccc2ncnc(Nc3ccc(Oc4cccc(Cl)c4)c(Cl)c3)c21)S(C)(=O)=O.Cc1ccc(S(=O)(=O)O)cc1", "pIC50": 5.29}

----------
Target protein (sequence): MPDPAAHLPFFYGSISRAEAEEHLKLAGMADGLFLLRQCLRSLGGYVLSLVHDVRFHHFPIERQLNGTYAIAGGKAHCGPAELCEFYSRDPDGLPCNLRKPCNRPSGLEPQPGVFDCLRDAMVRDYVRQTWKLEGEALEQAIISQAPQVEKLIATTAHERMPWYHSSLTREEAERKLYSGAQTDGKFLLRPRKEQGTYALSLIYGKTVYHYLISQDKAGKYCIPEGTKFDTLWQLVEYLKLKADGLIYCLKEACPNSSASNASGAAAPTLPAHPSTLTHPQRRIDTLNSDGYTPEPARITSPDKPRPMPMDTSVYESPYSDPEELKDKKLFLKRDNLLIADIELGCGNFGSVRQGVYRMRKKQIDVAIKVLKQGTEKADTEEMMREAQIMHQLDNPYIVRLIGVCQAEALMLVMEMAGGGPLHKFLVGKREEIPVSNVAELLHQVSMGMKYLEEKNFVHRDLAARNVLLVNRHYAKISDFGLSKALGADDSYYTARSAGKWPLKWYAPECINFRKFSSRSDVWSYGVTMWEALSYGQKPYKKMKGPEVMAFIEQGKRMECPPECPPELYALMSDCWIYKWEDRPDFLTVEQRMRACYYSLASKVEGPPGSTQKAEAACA
pIC50: −log10 of the molar value.

{"structure": "CC(C)(C(=O)NCCn1ccc2ncnc(Nc3ccc(Oc4cccc(Cl)c4)c(Cl)c3)c21)S(C)(=O)=O.Cc1ccc(S(=O)(=O)O)cc1", "pIC50": "< 5.00"}

----------
Measured Papp A→B at 10 µM accompanies every entry in the list below.
test: Apparent permeability across apical to basolateral side in human Caco2 cells at 10 umol/L
Assay type: ADME, cell-based
test-conditions: Caco-2

{"structure": "CS(=O)(=O)CC(=O)NCCn1ccc2ncnc(Nc3ccc(Oc4cccc(C(F)(F)F)c4)c(Cl)c3)c21", "Papp A→B at 10 µM": "0.52 ×10⁻⁶ cm/s"}
{"structure": "CC(C)(O)CC(=O)NCCn1ccc2ncnc(Nc3ccc(Oc4cccc(C(F)(F)F)c4)c(Cl)c3)c21", "Papp A→B at 10 µM": "5.05 ×10⁻⁶ cm/s"}
{"structure": "CC(C)(C(=O)NCCn1ccc2ncnc(Nc3ccc(Oc4cccc(C(F)(F)F)c4)c(Cl)c3)c21)S(C)(=O)=O", "Papp A→B at 10 µM": "2.87 ×10⁻⁶ cm/s"}
{"structure": "CS(=O)(=O)CC(=O)NCCn1ccc2ncnc(Nc3ccc(Oc4cccc(Cl)c4)c(Cl)c3)c21", "Papp A→B at 10 µM": "0.67 ×10⁻⁶ cm/s"}
{"structure": "CC(C)(C(=O)NCCn1ccc2ncnc(Nc3ccc(Oc4cccc(Cl)c4)c(Cl)c3)c21)S(C)(=O)=O", "Papp A→B at 10 µM": "2.85 ×10⁻⁶ cm/s"}

----------
test: Apparent permeability across basolateral to apical side in human Caco2 cells at 10 umol/L
Assay type: ADME, cell-based
test-conditions: Caco-2

{"structure": "CS(=O)(=O)CC(=O)NCCn1ccc2ncnc(Nc3ccc(Oc4cccc(C(F)(F)F)c4)c(Cl)c3)c21", "Papp B→A at 10 µM (×10⁻⁶ cm/s)": 8.29}
{"structure": "CC(C)(C(=O)NCCn1ccc2ncnc(Nc3ccc(Oc4cccc(Cl)c4)c(Cl)c3)c21)S(C)(=O)=O", "Papp B→A at 10 µM (×10⁻⁶ cm/s)": 7.69}
{"structure": "CC(C)(C(=O)NCCn1ccc2ncnc(Nc3ccc(Oc4cccc(C(F)(F)F)c4)c(Cl)c3)c21)S(C)(=O)=O", "Papp B→A at 10 µM (×10⁻⁶ cm/s)": 4.26}
{"structure": "CC(C)(O)CC(=O)NCCn1ccc2ncnc(Nc3ccc(Oc4cccc(C(F)(F)F)c4)c(Cl)c3)c21", "Papp B→A at 10 µM (×10⁻⁶ cm/s)": 6.87}
{"structure": "CS(=O)(=O)CC(=O)NCCn1ccc2ncnc(Nc3ccc(Oc4cccc(Cl)c4)c(Cl)c3)c21", "Papp B→A at 10 µM (×10⁻⁶ cm/s)": 6.79}
